TARGET_DESC: bovine kidney β—N-acetyl glucosaminidase (EC 3.2.1.52)
EXPERIMENT_DESCRIPTION: N-acetyl glucosaminidase (NaGase) enzymatic inhibition, pNphNAG substrate
RUN_PARAMETERS: Dixon's graphical method, substrate 2.5 mM and 5 mM; read-out: inhibition constant K1
pKi: −log10 of the molar value.
PROPERTY_LABEL: pKi

pKi lookup needed for CCCCCCCC(=O)OC[C@H]1OC(=O)[C@H](NC(C)=O)[C@@H](O)[C@@H]1O , thanks. ~5.52
